# tgt: T1, human β-Klotho (human, UniProt Q86Z14 1-1044)
# T1 sequence (looked up): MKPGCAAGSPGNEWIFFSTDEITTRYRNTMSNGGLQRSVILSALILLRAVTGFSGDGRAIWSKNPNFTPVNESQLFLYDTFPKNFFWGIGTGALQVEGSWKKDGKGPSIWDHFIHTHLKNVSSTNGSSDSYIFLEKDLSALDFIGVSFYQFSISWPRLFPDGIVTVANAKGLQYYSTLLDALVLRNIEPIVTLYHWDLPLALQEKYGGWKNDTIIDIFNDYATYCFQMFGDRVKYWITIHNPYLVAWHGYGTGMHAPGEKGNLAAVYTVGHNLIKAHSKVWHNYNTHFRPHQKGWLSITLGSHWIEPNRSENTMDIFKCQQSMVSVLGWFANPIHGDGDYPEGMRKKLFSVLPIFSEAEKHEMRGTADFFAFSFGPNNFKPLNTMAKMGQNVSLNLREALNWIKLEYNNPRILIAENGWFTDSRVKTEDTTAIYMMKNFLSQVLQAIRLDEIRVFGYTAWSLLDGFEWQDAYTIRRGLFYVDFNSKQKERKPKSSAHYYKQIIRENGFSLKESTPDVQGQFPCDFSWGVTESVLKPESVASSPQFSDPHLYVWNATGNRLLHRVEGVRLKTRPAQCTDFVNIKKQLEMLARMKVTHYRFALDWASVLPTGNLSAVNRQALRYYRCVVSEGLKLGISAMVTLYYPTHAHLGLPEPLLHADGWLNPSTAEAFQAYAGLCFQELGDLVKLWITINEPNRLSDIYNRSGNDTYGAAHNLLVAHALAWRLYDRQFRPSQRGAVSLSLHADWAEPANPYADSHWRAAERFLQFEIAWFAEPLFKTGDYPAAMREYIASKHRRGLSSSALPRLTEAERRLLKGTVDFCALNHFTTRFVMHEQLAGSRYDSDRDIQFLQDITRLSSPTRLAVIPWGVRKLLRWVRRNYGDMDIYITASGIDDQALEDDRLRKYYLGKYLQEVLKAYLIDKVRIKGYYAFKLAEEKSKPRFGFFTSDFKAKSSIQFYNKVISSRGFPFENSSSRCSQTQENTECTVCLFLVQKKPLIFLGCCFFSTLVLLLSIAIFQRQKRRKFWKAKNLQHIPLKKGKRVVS
# experiment summary: cell-based or functional assay
Listed below: ERK phosphorylation HEK-293 cells expressing β-Klotho EC50 values values for each entry.
recorded endpoint: ERK phosphorylation HEK-293 cells expressing β-Klotho EC50 values (nM)

binder	reported result
20 kDa PEG-FGF-21 P(156)TP mutant conjugate (ligand, GalNAc-SA-PEG-20 kDa (glycoPEG) on the introduced threonine 157) MHPIPDSSPLLQFGGQVRQRYLYTDDAQQTEAHLEIREDGTVGGAADQSPESLLQLKALKPGVIQILGVKTSRFLCQRPDGALYGSLHFDPEACSFRELLLEDGYNVYQSEAHGLPLHLPGNKSPHRDPAPRGPARFLPLPGLPPALPEPPGILAPTPPDVGSSDPLSMVGPSQGRSPSYAS	109
20 kDa PEG-FGF-21 P(5)TSSP mutant conjugate (ligand, GalNAc-SA-PEG-20 kDa (glycoPEG) on the introduced threonine 6) MHPIPTSSPLLQFGGQVRQRYLYTDDAQQTEAHLEIREDGTVGGAADQSPESLLQLKALKPGVIQILGVKTSRFLCQRPDGALYGSLHFDPEACSFRELLLEDGYNVYQSEAHGLPLHLPGNKSPHRDPAPRGPARFLPLPGLPPALPEPPGILAPQPPDVGSSDPLSMVGPSQGRSPSYAS	293
30 kDa PEG-FGF-21 P(156)TP mutant conjugate (ligand, GalNAc-SA-PEG-30 kDa (glycoPEG) on the introduced threonine 157) MHPIPDSSPLLQFGGQVRQRYLYTDDAQQTEAHLEIREDGTVGGAADQSPESLLQLKALKPGVIQILGVKTSRFLCQRPDGALYGSLHFDPEACSFRELLLEDGYNVYQSEAHGLPLHLPGNKSPHRDPAPRGPARFLPLPGLPPALPEPPGILAPTPPDVGSSDPLSMVGPSQGRSPSYAS	188
